Target: Hsp90β (Homo sapiens, UniProt P08238)
Sequence (P08238 whole entry): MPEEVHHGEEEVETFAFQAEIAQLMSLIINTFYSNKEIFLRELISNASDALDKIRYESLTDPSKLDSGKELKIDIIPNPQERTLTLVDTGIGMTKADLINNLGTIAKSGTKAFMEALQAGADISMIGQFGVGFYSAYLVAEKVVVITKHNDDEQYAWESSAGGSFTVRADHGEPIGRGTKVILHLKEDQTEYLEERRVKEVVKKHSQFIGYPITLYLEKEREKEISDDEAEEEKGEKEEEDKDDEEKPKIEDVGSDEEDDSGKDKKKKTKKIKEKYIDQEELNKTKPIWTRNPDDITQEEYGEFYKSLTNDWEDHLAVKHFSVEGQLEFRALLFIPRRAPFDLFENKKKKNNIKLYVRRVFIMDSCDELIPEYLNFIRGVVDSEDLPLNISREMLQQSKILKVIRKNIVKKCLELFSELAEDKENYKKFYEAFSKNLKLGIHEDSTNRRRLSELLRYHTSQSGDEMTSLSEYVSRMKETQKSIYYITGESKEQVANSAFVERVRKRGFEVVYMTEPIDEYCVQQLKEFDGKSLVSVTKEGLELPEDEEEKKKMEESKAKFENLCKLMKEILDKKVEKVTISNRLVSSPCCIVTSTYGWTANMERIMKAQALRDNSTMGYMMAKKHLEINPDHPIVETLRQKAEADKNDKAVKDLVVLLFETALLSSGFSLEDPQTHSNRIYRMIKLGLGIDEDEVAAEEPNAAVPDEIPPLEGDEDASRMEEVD
Settings: read-out: binding affinity (FP competition); probe 115a
assayMetric: IC50 (µM)
Output spec: scalar in µM, unitless text.

query: Please list IC50 recorded for the molecule Nc1ncnc2c1ncn2[C@@H]1O[C@H](COP(=O)(O)OP(=O)(O)O)[C@@H](O)[C@H]1O
result: 42

* * *

Target: UniProtKB P41148
Sequence (P41148 with tags, fused parts or gaps DELINS287-327GGGG): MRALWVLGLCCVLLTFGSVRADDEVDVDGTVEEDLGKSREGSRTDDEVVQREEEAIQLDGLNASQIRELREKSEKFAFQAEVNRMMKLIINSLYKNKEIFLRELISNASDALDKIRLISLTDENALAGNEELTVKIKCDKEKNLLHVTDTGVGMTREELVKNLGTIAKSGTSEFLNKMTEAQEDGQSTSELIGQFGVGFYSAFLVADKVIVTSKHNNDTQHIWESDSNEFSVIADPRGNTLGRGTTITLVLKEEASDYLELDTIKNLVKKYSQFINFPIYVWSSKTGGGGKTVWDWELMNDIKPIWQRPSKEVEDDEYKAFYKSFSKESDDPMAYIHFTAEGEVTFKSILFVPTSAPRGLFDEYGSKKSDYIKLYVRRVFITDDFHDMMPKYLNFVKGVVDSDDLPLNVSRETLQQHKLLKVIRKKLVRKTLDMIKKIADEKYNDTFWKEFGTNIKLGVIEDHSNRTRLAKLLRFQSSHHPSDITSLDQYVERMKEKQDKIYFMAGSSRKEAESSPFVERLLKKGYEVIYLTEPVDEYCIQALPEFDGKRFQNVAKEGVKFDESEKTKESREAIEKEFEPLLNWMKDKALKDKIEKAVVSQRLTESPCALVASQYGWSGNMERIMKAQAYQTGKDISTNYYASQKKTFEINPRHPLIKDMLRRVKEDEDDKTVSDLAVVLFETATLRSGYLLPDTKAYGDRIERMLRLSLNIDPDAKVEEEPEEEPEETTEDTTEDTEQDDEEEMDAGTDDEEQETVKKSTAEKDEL
Conditions: read-out: Grp94 IC50; 43a as FP probe
assayMetric: IC50
Express your answer as a number followed by its unit.

Consider the following illustrative entries.
structureAsSmiles	IC50
Nc1ncnc2c1ncn2[C@@H]1O[C@H](COP(=O)(O)OP(=O)(O)O)[C@@H](O)[C@H]1O	11.4 µM
C=CCNC1=C2C[C@@H](C)C[C@H](OC)[C@H](O)[C@@H](C)/C=C(\C)[C@H](OC(N)=O)[C@@H](OC)/C=C\C=C(/C)C(=O)NC(=CC1=O)C2=O	0.031 µM
CC(C)c1cc(-c2n[nH]c(=O)n2-c2ccc3c(ccn3C)c2)c(O)cc1O	0.01 µM

Consider the record given below.
query: Write down measured IC50 (UniProtKB P41148) for this molecule. Nc1ncnc2c1ncn2[C@@H]1O[C@H](COP(=O)(O)OP(=O)(O)OP(=O)(O)O)[C@@H](O)[C@H]1O
result: 3.24 µM
